- experiment-summary: Plasma and tissue distribution in SD rats
- Type: in vivo
- condition-info: female; F SD rat, Lung
- Protocol: The following Example describes the methods and data used to evaluate the tissue distribution of TYK2 inhibitors following the administration of either compound 1 or compound 2. Thirty (30, 15/sex) SD rats supplied by Beijing Vital River Laboratory Animal Technology Co., Ltd. were used in this study. […] The room (s) was controlled and monitored for relative humidity (targeted mean range 40% to 70%) and temperature (targeted mean range 20° C. to 26° C.) with 15 or above air changes/hour. […]
measured-endpoint: Tmax (min)

>>> reported("C[C@@H](c1ccc(Nc2cc(Nc3ncc(F)cc3S(C)(=O)=O)ncn2)nc1)N1CC2(COC2)C1")
30
